System: Alkaline phosphatase, tissue-nonspecific isozyme (Homo sapiens, UniProt P05186) | Read-out: pIC50 | Origin: multiple publications
Sequence (P05186 whole entry): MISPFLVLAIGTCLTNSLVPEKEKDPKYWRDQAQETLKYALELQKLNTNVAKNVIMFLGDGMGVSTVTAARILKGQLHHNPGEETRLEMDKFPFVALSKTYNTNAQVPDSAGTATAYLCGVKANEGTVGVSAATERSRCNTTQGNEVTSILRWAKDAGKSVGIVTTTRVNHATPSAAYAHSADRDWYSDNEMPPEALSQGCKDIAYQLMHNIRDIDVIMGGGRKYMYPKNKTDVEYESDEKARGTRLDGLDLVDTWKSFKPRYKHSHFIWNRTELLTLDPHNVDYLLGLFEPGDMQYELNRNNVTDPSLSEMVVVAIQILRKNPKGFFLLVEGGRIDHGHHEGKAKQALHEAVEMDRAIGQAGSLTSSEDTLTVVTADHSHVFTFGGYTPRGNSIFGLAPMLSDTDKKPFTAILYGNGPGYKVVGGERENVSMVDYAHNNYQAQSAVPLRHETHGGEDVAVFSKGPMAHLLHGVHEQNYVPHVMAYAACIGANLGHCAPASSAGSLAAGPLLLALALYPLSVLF
Remember, pIC50 is on a log scale: it is -log10 of the molar concentration.

Which measured pIC50 belongs to "COCCNC(=O)c1cc(-c2ccc(Cl)cc2Cl)n[nH]1" , tested on Alkaline phosphatase, tissue-nonspecific isozyme (Homo sapiens, UniProt P05186)?
7.34

Which measured pIC50 belongs to "CC(C)NC(=O)c1cc(-c2ccc(Cl)cc2Cl)n[nH]1" , tested on Alkaline phosphatase, tissue-nonspecific isozyme (Homo sapiens, UniProt P05186)?
7.29

Which measured pIC50 belongs to "CC(C)(C)NC(=O)c1cc(-c2ccc(Cl)cc2Cl)n[nH]1" , tested on Alkaline phosphatase, tissue-nonspecific isozyme (Homo sapiens, UniProt P05186)?
6.40

Which measured pIC50 belongs to "O=C(NCCO)c1cc(-c2ccc(F)cc2F)n[nH]1" , tested on Alkaline phosphatase, tissue-nonspecific isozyme (Homo sapiens, UniProt P05186)?
7.46

Which measured pIC50 belongs to "Cc1nccn1CC(=O)c1ccc(O)c(O)c1" , tested on Alkaline phosphatase, tissue-nonspecific isozyme (Homo sapiens, UniProt P05186)?
4.11

Which measured pIC50 belongs to "O=C(NCCO)c1cc(-c2cc(F)c(Cl)cc2Cl)n[nH]1" , tested on Alkaline phosphatase, tissue-nonspecific isozyme (Homo sapiens, UniProt P05186)?
7.00

Which measured pIC50 belongs to "Cc1ccccc1/C=C1\NS(=O)(=O)c2ccccc2C1=O" , tested on Alkaline phosphatase, tissue-nonspecific isozyme (Homo sapiens, UniProt P05186)?
5.63

Which measured pIC50 belongs to "CCN(CC)C(=O)c1cc(-c2ccc(Cl)cc2Cl)n[nH]1" , tested on Alkaline phosphatase, tissue-nonspecific isozyme (Homo sapiens, UniProt P05186)?
6.55

Which measured pIC50 belongs to "CC(C)CNC(=O)c1cc(-c2ccc(Cl)cc2Cl)n[nH]1" , tested on Alkaline phosphatase, tissue-nonspecific isozyme (Homo sapiens, UniProt P05186)?
7.09

Which measured pIC50 belongs to "CN(C)C(=O)c1cc(-c2cc(F)c(Cl)cc2Cl)n[nH]1" , tested on Alkaline phosphatase, tissue-nonspecific isozyme (Homo sapiens, UniProt P05186)?
6.49
